- target: UniProtKB Q99572
- Sequence (Q99572 whole entry): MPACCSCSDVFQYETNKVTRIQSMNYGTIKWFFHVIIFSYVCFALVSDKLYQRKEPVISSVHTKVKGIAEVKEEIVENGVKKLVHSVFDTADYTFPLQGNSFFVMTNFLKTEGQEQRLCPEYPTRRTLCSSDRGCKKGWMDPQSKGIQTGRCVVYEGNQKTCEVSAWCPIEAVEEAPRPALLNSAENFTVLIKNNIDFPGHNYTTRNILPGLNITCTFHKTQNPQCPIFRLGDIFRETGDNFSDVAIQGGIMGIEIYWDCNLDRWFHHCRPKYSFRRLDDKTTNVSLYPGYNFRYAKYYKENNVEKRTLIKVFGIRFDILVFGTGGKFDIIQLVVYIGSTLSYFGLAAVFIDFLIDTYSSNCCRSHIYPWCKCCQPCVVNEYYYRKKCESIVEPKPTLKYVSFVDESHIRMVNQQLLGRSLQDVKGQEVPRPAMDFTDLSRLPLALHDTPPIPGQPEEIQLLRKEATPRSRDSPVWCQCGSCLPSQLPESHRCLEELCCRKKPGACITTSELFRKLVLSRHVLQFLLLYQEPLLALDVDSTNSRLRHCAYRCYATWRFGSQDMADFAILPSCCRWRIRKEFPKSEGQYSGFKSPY
recorded_endpoint: Ki (nM)
Answer with a number only, understood to be in nM.

Examples from the recorded data:
[
  {
    "smi": "C[C@H]1Cn2c(-c3ccc(F)cn3)nnc2-c2nnc(-c3ccc(Cl)cc3Cl)n21",
    "target": "UniProtKB Q99572",
    "readout_value": 10
  },
  {
    "smi": "C[C@H]1Cn2c(-c3cnccn3)nnc2-c2nnc(-c3cccc(Cl)c3Cl)n21",
    "target": "UniProtKB Q99572",
    "readout_value": 20
  },
  {
    "smi": "C[C@H]1Cn2c(-c3ccc(F)cn3)nnc2-c2nnc(-c3cccc(Cl)c3Cl)n21",
    "target": "UniProtKB Q99572",
    "readout_value": 12.6
  },
  {
    "smi": "C[C@H]1Cn2c(-c3ccc(F)cc3)nnc2-c2nnc(-c3cccc(C(F)(F)F)c3Cl)n21",
    "target": "UniProtKB Q99572",
    "readout_value": 39.8
  },
  {
    "smi": "Cc1ccnc(-c2nnc3n2C[C@H](C)n2c(-c4cccc(C(F)(F)F)c4Cl)nnc2-3)c1",
    "target": "UniProtKB Q99572",
    "readout_value": 10.5
  },
  {
    "smi": "C[C@H]1Cn2c(-c3nccs3)nnc2-c2nnc(-c3cccc(C(F)(F)F)c3Cl)n21",
    "target": "UniProtKB Q99572",
    "readout_value": 12.6
  },
  {
    "smi": "COc1ccnc(-c2nnc3n2C[C@H](C)n2c(-c4cccc(Cl)c4Cl)nnc2-3)c1",
    "target": "UniProtKB Q99572",
    "readout_value": 10
  }
]

Req: Provide the documented Ki with UniProtKB Q99572 as the system for `Cc1c(-c2nnc3n2[C@@H](C)Cn2c(-c4ccc(F)cn4)nnc2-3)cccc1C(F)(F)F`
Resp: 6.3
